system: RPMI-8226 leukemia; assay: NCI-60 one-dose screen, 48 h (100 = growth as untreated, 0 = no growth, -100 = all killed); details: 10 µM unless noted
The panel holds about 83,000 compounds, 20% with a hit somewhere; the sample as a whole holds those more often.
PROPERTY LABEL: growth (%)

- COMPOUND: "COc1cc(C(C)n2cc(-c3ccccc3)nn2)ccc1OC1CCCCC1 (configuration not stated)"
  OBSERVED: 35
- COMPOUND: "Oc1ccc(-c2nc(-c3ccc4oc5ccc(-c6[nH]c(-c7ccc(O)cc7)nc6-c6ccccc6)cc5c4c3)c(-c3ccccc3)[nH]2)cc1"
  OBSERVED: 19.8
- COMPOUND: "COc1c(B(O)O)cccc1-c1nc2ccc3n[nH]c(F)c3c2c2c1CCCC2"
  OBSERVED: 42.3
- COMPOUND: "O=C(NC1CCN(Cc2ccccc2)CC1)c1cc(C(=O)NC2CCN(Cc3ccccc3)CC2)cc(C(=O)NC2CCN(Cc3ccccc3)CC2)c1"
  OBSERVED: 56.4
- COMPOUND: "O=C(Nc1ccc(I)cc1F)c1cc(Br)ccc1O"
  OBSERVED: -18.9
- COMPOUND: "COc1cc(C2C(C#N)=C(N)OC3=C2C(=O)c2ccccc2C3=O)cc(OC)c1OC (configuration not stated)"
  OBSERVED: 18.5
- COMPOUND: "COc1cc(CNC(=O)Cc2ccccc2)ccc1OCc1cn(-c2ccc(F)cc2)nn1"
  OBSERVED: 89.8
- COMPOUND: "O=C(c1nc2ccccc2[nH]1)C1C(c2ccc(F)cc2)C2CC3CCCCC3N2[C@@]12C(=O)Nc1ccc(Cl)cc12 (some centres not stated)"
  OBSERVED: 13.9
- COMPOUND: "CN(C)CCCNCc1ccc(-c2ccc(F)c(Cl)c2)o1"
  OBSERVED: -26.3
- COMPOUND: "Nc1nc(N)c2c(n1)NC1(C=C(O)c3ccccc31)C1=C(N2)c2ccccc2C1=O (configuration not stated)"
  OBSERVED: 107
- COMPOUND: "COc1ccc(C(=O)C2CC2c2ccc(Cl)cc2)cc1 (configuration not stated)"
  OBSERVED: 38.4
- COMPOUND: "O=c1c2cc(F)cc(Cl)c2sc2c(Cl)nc3ccccc3c12"
  OBSERVED: 115
- COMPOUND: "O=C1c2ccccc2C(=O)c2c1ccc1[nH]c(CCl)nc21"
  OBSERVED: -40.3
- COMPOUND: "COc1cc2nc(-c3cnc(N(C)C)nc3)nc(NC3CCN(Cc4ccccc4)CC3)c2cc1OC"
  OBSERVED: -50.5
- COMPOUND: "COC(=O)/C(CCC=C(C)C)=C1\\[C@@H](OC(C)=O)C[C@@]2(C)[C@H]1CC(=O)N[C@H]1[C@@]3(C)CCNC(=O)[C@@H](C)[C@@H]3CC[C@@]12C"
  OBSERVED: 97.8
- COMPOUND: "COc1cc(C2CC(c3ccc(Nc4nc(NCCO)nc(N5CCOCC5)n4)cc3)=NN2c2cc(Cl)cc(Cl)c2)cc(OC)c1OC (configuration not stated)"
  OBSERVED: 33.4
- COMPOUND: "CCN1C(=O)N(CC)C2C1NN=c1s/c(=C3\\C(=O)N(CC(C)(C)C)c4ccccc43)c(=O)n12 (configuration not stated)"
  OBSERVED: 36.7
- COMPOUND: "COc1ccc2sc(N(Cc3cccnc3)C(=O)c3ccc(C#N)cc3)nc2c1"
  OBSERVED: 64.4
- COMPOUND: "O=c1c(-c2nc3ccccc3[nH]2)cc2ccccc2n1Cc1cn(Cc2ccc(F)cc2)nn1"
  OBSERVED: 16.7
- COMPOUND: "COc1cc(C2C(C#N)=C(N)OC3=C2C(=O)c2ccccc2C3=O)cc(OC)c1O (configuration not stated)"
  OBSERVED: 17.1
- COMPOUND: "CCN1C(=O)N(CC)C2Nn3c(s/c(=C4\\C(=O)N(C(C)C)c5ccccc54)c3=O)=NC21 (configuration not stated)"
  OBSERVED: 23.3
- COMPOUND: "Oc1c(C(Nc2ccccn2)c2cccc(Oc3ccccc3)c2)ccc2cccnc12 (configuration not stated)"
  OBSERVED: -50.6
- COMPOUND: "CC(=Nc1ccccc1)C1=C(O)C(Cc2ccc(F)cc2)NC1=O (configuration not stated)"
  OBSERVED: 5.55
- COMPOUND: "NC(CCc1nc2ccccc2c(=O)[nH]1)C(=O)O (configuration not stated)"
  OBSERVED: 101
- COMPOUND: "O=c1oc2ccc(Cl)cc2c(=O)n1-c1ccc(Cl)cc1F"
  OBSERVED: -28.5
- COMPOUND: "O=C(Nc1ccc(N2CCNCC2)cn1)c1[nH]ncc1Nc1ncnc2sc3c(c12)CCC3"
  OBSERVED: -38.2
- COMPOUND: "O=c1oc2ccc(I)cc2c(=O)n1-c1ccc(F)cc1F"
  OBSERVED: 1.49
- COMPOUND: "O=C(Nc1ccc(F)cc1F)c1cc(Cl)ccc1O"
  OBSERVED: 1.46
- COMPOUND: "Brc1ccc(Nc2nc3ccccc3nc2Nc2ccc(Br)cc2)cc1"
  OBSERVED: -12.3
- COMPOUND: "COc1ccc(-c2nocc2-c2cccs2)cc1"
  OBSERVED: 124
- COMPOUND: "O=NN(Cc1cccnc1)C(=O)NC1CCCCC1"
  OBSERVED: 95.3
- COMPOUND: "COc1cccc(/C(C#N)=C/c2nc3c(N4CCOCC4)nc(Cl)nc3n2C)c1"
  OBSERVED: -23.5

Measured values drawn from PubChem BioAssay (NCI) for this set.
